Molecular target: T1, RecE564 R768A (Escherichia coli K12, UniProt P15032 564-866, R768A)
T1 sequence: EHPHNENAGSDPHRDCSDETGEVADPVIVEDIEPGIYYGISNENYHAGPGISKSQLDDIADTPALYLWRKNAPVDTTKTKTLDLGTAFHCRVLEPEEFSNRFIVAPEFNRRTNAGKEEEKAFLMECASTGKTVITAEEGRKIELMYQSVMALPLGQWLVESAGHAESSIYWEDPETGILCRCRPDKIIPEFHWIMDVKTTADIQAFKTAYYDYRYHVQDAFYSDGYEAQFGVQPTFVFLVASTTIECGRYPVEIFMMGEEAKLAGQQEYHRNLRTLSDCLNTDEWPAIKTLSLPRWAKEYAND
Assay: fluorescence anisotropy
pKd: −log10 of the molar value.
ENDPOINT_LABEL: pKd

1) F25 (dsDNA) DNA 1: TAGAGCTTAATTGCTGAATCTGGTG DNA 2: CACCAGATTCAGCAATTAAGCTCTA = 6.51
